// protein stability index lookup, one value per entry
B1: NET1 (parent)
chain: PTPAKRRSSALWSEMLDITMKESL

Variants of: B1
Assay: protein stability index of a GFP-peptide fusion (GPS, HEK-293T) (PSI 1-6); higher = more stable;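 note: lentivirally expressed fusions sorted by FACS into six bins by GFP to DsRed ratio, PSI derived from sequencing read proportions per bin multiplied by bin number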
Details: c terminus: a fixed tail appended
endpoint-label: protein stability index

input-sequence: PTPAKRRSSYLWSEMLDITMKESL
measured-result: 1.63

input-sequence: PTPAKRRSSALWSEMLDYTMKESL
measured-result: 2.97

input-sequence: PTPAKRRSSALWSEMLDITRKESL
measured-result: 3.42

input-sequence: PTPAKRRSSALWSEMLEITMKESL
measured-result: 2.07

input-sequence: PTPAKRRSSALWSEMLDITMKEST
measured-result: 2.2

input-sequence: PTPAKRRSSALISEMLDITMKESL
measured-result: 3.5

input-sequence: PTPTKRRSSALWSEMLDITMKESL
measured-result: 1.95

input-sequence: PTPAKRRSSALFSEMLDITMKESL
measured-result: 3.26

input-sequence: PTPAKRRSSALWSEMLDCTMKESL
measured-result: 2

input-sequence: PTPAKRRSSALWSEMLDHTMKESL
measured-result: 2.53

input-sequence: PTPAKRRSSALWSEMLDITMHESL
measured-result: 2.25

input-sequence: PTPAKRRSSALWSCMLDITMKESL
measured-result: 1.15

input-sequence: PTPAKRRSSAEWSEMLDITMKESL
measured-result: 4.75

input-sequence: PTPAKRRSSALVSEMLDITMKESL
measured-result: 3.65

input-sequence: PTPAKRRSSALWSEMSDITMKESL
measured-result: 3.17

input-sequence: PTPANRRSSALWSEMLDITMKESL
measured-result: 2.52

input-sequence: PTPAKRRFSALWSEMLDITMKESL
measured-result: 1.68

input-sequence: PTPRKRRSSALWSEMLDITMKESL
measured-result: 2.03

input-sequence: PTPAKRRSSALWSEMLDITYKESL
measured-result: 2.64

input-sequence: PTPAKRRSSALWSEMLDITMSESL
measured-result: 2.73

input-sequence: PTPAKRRSSALWSEGLDITMKESL
measured-result: 3.83

input-sequence: PTPAARRSSALWSEMLDITMKESL
measured-result: 2.34
